Recorded mean by entry
molecular target: SARS-CoV-2 3CLpro (Severe acute respiratory syndrome coronavirus 2); experiment: biochemical; assay type: biochemical; design: unit not given here; conditions: sheet LOPAC_screen_w_protease; LOPAC1280 primary screen at 5 µM, with protease; mean of the two replicates
recorded.metric: mean

molecule: CCCCCCCCCC[Si](C)(C)CCC(=O)NC(Cc1ccc(C)cc1)c1ccccc1 (stereo not drawn)
target.desc: SARS-CoV-2 3CLpro (Severe acute respiratory syndrome coronavirus 2)
endpoint.result: 0.7639
--
molecule: O=S(=O)(c1cccc2cnccc12)N1CCNCC1
target.desc: SARS-CoV-2 3CLpro (Severe acute respiratory syndrome coronavirus 2)
endpoint.result: 0.7375
--
molecule: COc1ccc(NC(=O)c2ccc(-c3ccc(-c4noc(C)n4)cc3C)cc2)cc1N1CCN(C)CC1.Cl [GR 127935 hydrochloride]
target.desc: SARS-CoV-2 3CLpro (Severe acute respiratory syndrome coronavirus 2)
endpoint.result: 0.6456
--
molecule: Cn1c(=O)c2c(nc(C=Cc3cccc(Cl)c3)n2C)n(C)c1=O
target.desc: SARS-CoV-2 3CLpro (Severe acute respiratory syndrome coronavirus 2)
endpoint.result: 0.7326
--
molecule: CCn1cnc2c(Nc3cccc(Cl)c3)nc(N[C@@H]3CCCC[C@@H]3N)nc21.Cl [CGP-74514A hydrochloride]
target.desc: SARS-CoV-2 3CLpro (Severe acute respiratory syndrome coronavirus 2)
endpoint.result: 0.7839
--
molecule: Cl.NCCCCNS(=O)(=O)c1ccc2c(Cl)cccc2c1
target.desc: SARS-CoV-2 3CLpro (Severe acute respiratory syndrome coronavirus 2)
endpoint.result: 0.6799
--
molecule: O=[N+]([O-])c1ccc(O[C@@H]2O[C@H](CO)[C@@H](O)[C@H](O)[C@H]2F)c([N+](=O)[O-])c1
target.desc: SARS-CoV-2 3CLpro (Severe acute respiratory syndrome coronavirus 2)
endpoint.result: 0.5921
--
molecule: c1ccc(-c2ccccn2)nc1
target.desc: SARS-CoV-2 3CLpro (Severe acute respiratory syndrome coronavirus 2)
endpoint.result: 0.8479
--
molecule: N[C@H](C(=O)O)c1cc(O)no1 (racemic) [(±)-Ibotenic acid]
target.desc: SARS-CoV-2 3CLpro (Severe acute respiratory syndrome coronavirus 2)
endpoint.result: 0.7432

====

target: SARS-CoV-2 3CLpro (Severe acute respiratory syndrome coronavirus 2, UniProt P0DTD1); assay: biochemical; type: biochemical; conditions: 4 h, sheet LOPAC_screen_w_protease; LOPAC1280 primary screen with protease, 5 µM compound; replicate 2; read-out: Replicate_2
Counter-ions that a name gives are not always drawn.
Recorded inhibition at 5 µM values for a group of compounds are listed next.

compound: CC(Cc1ccc(O)cc1)NCC(O)c1cc(O)cc(O)c1 (centres unmarked) [Fenoterol hydrobromide]
inhibition at 5 µM / %: 4.02
//
compound: COCCOC(=O)C1=C(C)NC(C)=C(C(=O)OC(C)C)C1c1cccc([N+](=O)[O-])c1 (centres unmarked) [Nimodipine]
inhibition at 5 µM / %: 6.04
//
compound: CSc1ccc2c(c1)C(N1CCN(C)CC1)Cc1ccccc1S2 (centres unmarked) [Methiothepin mesylate]
inhibition at 5 µM / %: 4.42
//
compound: O=c1nc2[nH]c3ccccc3nc-2c(=O)[nH]1 [Alloxazine]
inhibition at 5 µM / %: 4.55
//
compound: CNCCC(Oc1ccccc1OC)c1ccccc1 (centres unmarked) [Nisoxetine hydrochloride]
inhibition at 5 µM / %: 5.27

====

biological target: SARS-CoV-2 3CLpro (Severe acute respiratory syndrome coronavirus 2, UniProt P0DTD1); assay: biochemical; assay type: biochemical; set-up: unit not given here; settings: sheet LOPAC_screen_w_protease; primary screen with protease, 5 µM; replicate 2
Quick list: Replicate_2 per entry.
recorded.metric: Replicate_2

molecule: Br.C[N+](C)(C)CCCCCNCC12CC3CC(CC(C3)C1)C2.[Br-] [IEM-1460]
endpoint.result: 0.2724

molecule: O=C([O-])CCC(NC(=O)c1ccccc1C(=O)[O-])C(=O)[O-].[Na+].[Na+].[Na+] [Phthalamoyl-L-glutamic acid trisodium]
endpoint.result: -0.3354

molecule: CC(C)Oc1cccnc1N(C)C1CCN(Cc2ccccc2)CC1.O=C(O)/C=C\C(=O)O [U-101958 maleate]
endpoint.result: -1.865

molecule: CC[C@]1(O)C[C@@H]2CN(CCc3c([nH]c4ccccc34)[C@@](C(=O)OC)(c3cc4c(cc3OC)N(C)[C@H]3[C@@](O)(C(=O)OC)[C@H](OC(C)=O)[C@]5(CC)C=CCN6CC[C@]43[C@@H]65)C2)C1.O=S(=O)(O)O [Vinblastine sulfate salt]
endpoint.result: -1.277

molecule: O=C(O)Cc1c[nH]c2ccc(O)cc12 [5-Hydroxyindolacetic acid]
endpoint.result: -2.381

molecule: CCCCC/C=C\C/C=C\C/C=C\C/C=C\CCCC(=O)NCC(=O)O [N-arachidonylglycine]
endpoint.result: -0.9708

molecule: CC(C)CC(NC(=O)C1OC1C(=O)O)C(=O)NCCCCNC(=N)N (stereo not shown) [E-64]
endpoint.result: -0.8864

molecule: CCc1ccccc1OC[C@@H](O)CN[C@H]1CCCc2ccccc21.O=C(O)C(=O)O [SR 59230A oxalate]
endpoint.result: -1.089

molecule: Cn1c(=O)c2[nH]c(C3CCCC3)nc2n(C)c1=O [8-Cyclopentyl-1,3-dimethylxanthine]
endpoint.result: -2.037

molecule: CN(C)c1ccc(/C=C2\C(=O)Nc3ccccc32)cc1 [SU 4312]
endpoint.result: -0.3085

molecule: Br.NCc1cc(O)no1 [Muscimol hydrobromide]
endpoint.result: -2.625

molecule: Cc1cccc(/C=C/c2ccccc2)n1 [SIB 1893]
endpoint.result: -1.403

molecule: Cl.Fc1ccc(CN(C2=NCCN2)c2c(Cl)cccc2Cl)cc1 [IMID-4F hydrochloride]
endpoint.result: -0.3997

molecule: C[C@]12C=CC(=O)C=C1CC[C@@H]1C2=CC[C@]2(C)[C@@H](C(=O)CN3CCN(c4cc(N5CCCC5)nc(N5CCCC5)n4)CC3)CC[C@@H]12.O=C(O)/C=C\C(=O)O [U-74389G maleate]
endpoint.result: 0.0606

molecule: FC(F)(F)c1ccccc1-n1ccnc1 [1-[2-(Trifluoromethyl)phenyl]imidazole]
endpoint.result: -1.897

molecule: COc1ccc2c(c1)c(CC(=O)O)c(C)n2Cc1ccc(Cl)cc1
endpoint.result: 1.613

molecule: CC(C)(C)NC[C@H](O)COc1nsnc1N1CCOCC1.O=C(O)/C=C\C(=O)O [S(-)-Timolol maleate]
endpoint.result: -1.724

molecule: Cc1c(C)c2c(c(C)c1O)CCC(C)(CN1CCN(c3cc(N4CCCC4)nc(N4CCCC4)n3)CC1)O2.Cl.Cl (stereo not shown) [U-83836 dihydrochloride]
endpoint.result: 0.3273

molecule: Cl.Nc1cc(Cl)c(N=C2NCCN2)c(Cl)c1 [p-Aminoclonidine hydrochloride]
endpoint.result: -0.207

molecule: C[C@]12CCC(=O)C(O)=C1CC[C@@H]1[C@@H]2CC[C@]2(C)C(=O)CC[C@@H]12 [4-Androsten-4-ol-3,17-dione]
endpoint.result: -1.108

molecule: CC(C)NCC(O)COc1cccc2[nH]ccc12 (stereo not drawn) [S(-)-Pindolol]
endpoint.result: -0.9667

molecule: Br.CCCN(CCC)[C@@H]1CCc2cccc(O)c2C1 [R-(+)-8-Hydroxy-DPAT hydrobromide]
endpoint.result: -3.442

molecule: CCCCC#Cc1nc(N)c2ncn([C@@H]3O[C@H](C(=O)NCC)[C@@H](O)[C@H]3O)c2n1 [HE-NECA]
endpoint.result: -2.7179

molecule: COc1cc(CC(=O)O)ccc1O [4-Hydroxy-3-methoxyphenylacetic acid]
endpoint.result: -3.602

molecule: CC(=O)OCC1=C(C(=O)[O-])N2C(=O)[C@@H](NC(=O)CCC[C@@H](N)C(=O)[O-])[C@H]2SC1.[Zn+2] [Cephalosporin C zinc salt]
endpoint.result: -0.2647

====

mean (LOPAC_screen_w_protease) overview
biological target: SARS-CoV-2 3CLpro (Severe acute respiratory syndrome coronavirus 2, UniProt P0DTD1); experiment: biochemical; assay type: biochemical; design: unit not given here; conditions: LOPAC1280 primary screen with protease, 5 µM compound, mean of the two replicates
recorded.metric: mean (LOPAC_screen_w_protease)

compound: O=C(O)c1cc(=O)c2ccccc2[nH]1
recorded.metric: mean (LOPAC_screen_w_protease)
endpoint.result: 1.961
//
compound: CC(=O)NBr [N-Bromoacetamide]
recorded.metric: mean (LOPAC_screen_w_protease)
endpoint.result: 1.955
//
compound: CCc1cc(Cl)c(O)c(C(=O)NC[C@@H]2CCCN2CC)c1OC.Cl [S-(-)-Eticlopride hydrochloride]
recorded.metric: mean (LOPAC_screen_w_protease)
endpoint.result: 2.005

====

biological target: SARS-CoV-2 3CLpro (Severe acute respiratory syndrome coronavirus 2); assay: biochemical; format: biochemical; conditions: 4 h, sheet LOPAC_screen_w_protease; primary screen of LOPAC1280 at 5 µM with protease; replicate 2; read-out: Replicate_2
Where a name gives a salt, the structure may show the parent alone.
Measured inhibition at 5 µM accompanies every entry in the list below.

molecule: Clc1ccc2c(c1)C(N1CCNCC1)=Nc1ccccc1O2
target.desc: SARS-CoV-2 3CLpro (Severe acute respiratory syndrome coronavirus 2)
inhibition at 5 µM: 2.89%
//
molecule: CC1=C[C@@H]2c3cccc4[nH]cc(c34)C[C@H]2N(C)C1
target.desc: SARS-CoV-2 3CLpro (Severe acute respiratory syndrome coronavirus 2)
inhibition at 5 µM: 3.34%
//
molecule: Cn1cnc2c1c(=O)[nH]c(=O)n2C
target.desc: SARS-CoV-2 3CLpro (Severe acute respiratory syndrome coronavirus 2)
inhibition at 5 µM: 2.55%
//
molecule: N#C/C(=C\c1ccc(O)c(O)c1)C(=O)Nc1ccccc1
target.desc: SARS-CoV-2 3CLpro (Severe acute respiratory syndrome coronavirus 2)
inhibition at 5 µM: 3.69%
//
molecule: COc1cc(C(=O)OCCCN2CCCN(CCCOC(=O)c3cc(OC)c(OC)c(OC)c3)CC2)cc(OC)c1OC [Dilazep hydrochloride]
target.desc: SARS-CoV-2 3CLpro (Severe acute respiratory syndrome coronavirus 2)
inhibition at 5 µM: 4.35%
//
molecule: CCCNCC(O)COc1ccccc1C(=O)CCc1ccccc1 (stereo not shown) [Propafenone hydrochloride]
target.desc: SARS-CoV-2 3CLpro (Severe acute respiratory syndrome coronavirus 2)
inhibition at 5 µM: 3.48%
//
molecule: CCCC(CCC)C(=O)O [Valproic acid sodium]
target.desc: SARS-CoV-2 3CLpro (Severe acute respiratory syndrome coronavirus 2)
inhibition at 5 µM: 3.67%
//
molecule: CC(=O)c1ccc(S(=O)(=O)NC(=O)NC2CCCCC2)cc1 [Acetohexamide]
target.desc: SARS-CoV-2 3CLpro (Severe acute respiratory syndrome coronavirus 2)
inhibition at 5 µM: 4.1%
//
molecule: CC(=O)O[C@H]1C[C@@H]2CC[C@@H]3[C@H](CC[C@@]4(C)[C@H]3C[C@H]([N+]3(C)CCCCC3)[C@@H]4OC(C)=O)[C@@]2(C)C[C@@H]1[N+]1(C)CCCCC1 [Pancuronium bromide]
target.desc: SARS-CoV-2 3CLpro (Severe acute respiratory syndrome coronavirus 2)
inhibition at 5 µM: 5.41%
//
molecule: NC(=O)CN1CC(O)CC1=O (stereo not shown)
target.desc: SARS-CoV-2 3CLpro (Severe acute respiratory syndrome coronavirus 2)
inhibition at 5 µM: 3.71%
